Data provenance: patent US11324724B2

Kindly state Kb for each of the entries shown.
target.or.test.system: human Orexin 1 receptor (Homo sapiens, UniProt O43613)
Construct: stably expressing the full-length human Orexin 1 receptor; expressed in transfected cells; host or cells: CHO-K1 (CHO-K1/hOx1), co-expressing aequorin
Sequence (O43613 1-425): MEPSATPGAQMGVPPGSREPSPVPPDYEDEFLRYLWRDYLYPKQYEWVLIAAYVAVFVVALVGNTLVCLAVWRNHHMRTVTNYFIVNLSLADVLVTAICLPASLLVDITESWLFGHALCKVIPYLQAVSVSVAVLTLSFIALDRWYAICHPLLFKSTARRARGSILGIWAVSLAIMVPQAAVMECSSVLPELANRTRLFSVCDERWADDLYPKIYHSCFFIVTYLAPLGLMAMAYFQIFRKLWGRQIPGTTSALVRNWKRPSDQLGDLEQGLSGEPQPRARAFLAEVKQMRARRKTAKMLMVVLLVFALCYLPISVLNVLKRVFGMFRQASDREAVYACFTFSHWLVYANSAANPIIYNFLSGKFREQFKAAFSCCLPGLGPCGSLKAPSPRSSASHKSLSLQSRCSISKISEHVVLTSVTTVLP
assay.procedure: Assay A: in vitro testing of OX1R potency, OX1R IP1
Type: cell-based
particulars: 0.5 nM Orexin A concentration
Numbers only, in nM.

# count of solved cases: 4
In [3]: df
Out[3]:
                            compound_smiles  reported_value
0  C[C@@H](CNc1ncc(C(F)(F)F)cn1)N(CC(F)F)C(=O)c1c(F)cccc1-c1ncccn1            0.67
1  C[C@@H](CNc1ncc(C(F)(F)F)cn1)N(CC(F)F)C(=O)c1cc(F)cc(F)c1-n1nccn1            1.17
2  C[C@@H](CNc1ncc(C(F)(F)F)cn1)N(CC(F)F)C(=O)c1cc(F)ccc1-c1ncccn1            0.42
3  C[C@@H](CNc1ncc(C(F)(F)F)cn1)N(CC(F)F)C(=O)c1cccc(F)c1-n1nccn1            0.63

# input for lookup
The compound listed as C[C@@H](CNc1ncc(C(F)(F)F)cn1)N(CC(F)F)C(=O)c1cccc(F)c1-c1ncccn1 shows Kb equal to 0.19
